Target: human A2B AR (Homo sapiens, UniProt P29275)
Construct: expressed in transfected cells; host or cells: CHO cells
Sequence (P29275 1-332): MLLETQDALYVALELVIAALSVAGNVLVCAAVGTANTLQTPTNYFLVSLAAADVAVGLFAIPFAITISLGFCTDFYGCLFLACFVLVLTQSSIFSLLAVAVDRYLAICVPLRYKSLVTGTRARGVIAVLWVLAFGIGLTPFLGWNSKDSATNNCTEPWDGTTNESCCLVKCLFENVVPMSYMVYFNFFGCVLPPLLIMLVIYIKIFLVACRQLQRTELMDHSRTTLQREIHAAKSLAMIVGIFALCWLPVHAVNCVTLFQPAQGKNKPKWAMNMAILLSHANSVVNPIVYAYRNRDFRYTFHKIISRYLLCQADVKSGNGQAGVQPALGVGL
Assay: Radioligand binding assay at human A2B AR vs. [^3H]PSB-603
Details: CHO cell membranes, n = 2 (n = 3 where marked a), read-out: Ki ± SEM, A2B vs. [^3H]PSB-603
metric name: Ki

CCn1c(=O)c2c(nc3n2CCN(Cc2cccc(F)c2)C3)n(C)c1=O [Compound 14g] : > 0.1 µM
CCn1c(=O)c2c(nc3n2CCN(Cc2ccc(Br)cc2)C3)n(CC)c1=O [Compound 15e] : > 1 µM
CCn1c(=O)c2c(nc3n2CCN(Cc2cccc(Cl)c2)C3)n(CC)c1=O [Compound 15c] : > 1 µM
C#CCn1c(=O)c2c(nc3n2CCN(c2cccc(OC)c2)C3)n(CC)c1=O [Compound 20c] : > 1 µM
Cn1c(=O)c2c(nc3n2CCN(Cc2ccc(Cl)c(Cl)c2)C3)n(C2CC2)c1=O [Compound 17] : > 0.1 µM
C#CCn1c(=O)c2c(nc3n2CCN(Cc2ccccc2OC)C3)n(CC)c1=O [Compound 20f] : > 1 µM
CCn1c(=O)c2c(nc3n2CCN(Cc2cc(C(F)(F)F)cc(C(F)(F)F)c2)C3)n(CC)c1=O [Compound 15q] : > 1 µM
C#CCn1c(=O)c2c(nc3n2CCN(c2ccc(F)cc2)C3)n(CC)c1=O [Compound 20b] : > 1 µM
C#CCn1c(=O)c2c(nc3n2CCN(CCc2ccc(OC)cc2)C3)n(CC)c1=O [Compound 20k] : > 1 µM
CCn1c(=O)c2c(nc3n2CCN(Cc2ccc(F)cc2)C3)n(C)c1=O [Compound 14h] : > 1 µM
CCn1c(=O)n(C)c(=O)c2c1nc1n2CCN(Cc2cc(Cl)cc(Cl)c2)C1 [Compound 16b] : > 1 µM
CCn1c(=O)c2c(nc3n2CCN(Cc2ccc(F)c(C(F)(F)F)c2)C3)n(CC)c1=O [Compound 15i] : > 1 µM
C#CCn1c(=O)c2c(nc3n2CCN(CCc2ccccc2)C3)n(CC)c1=O [Compound 20h] : > 1 µM

###

Molecular target: recombinant human MAO-B (Homo sapiens)
Construct: purchased Sigma-Aldrich M7441; host or cells: baculovirus-infected insect cells
Sequence (P27338 whole entry): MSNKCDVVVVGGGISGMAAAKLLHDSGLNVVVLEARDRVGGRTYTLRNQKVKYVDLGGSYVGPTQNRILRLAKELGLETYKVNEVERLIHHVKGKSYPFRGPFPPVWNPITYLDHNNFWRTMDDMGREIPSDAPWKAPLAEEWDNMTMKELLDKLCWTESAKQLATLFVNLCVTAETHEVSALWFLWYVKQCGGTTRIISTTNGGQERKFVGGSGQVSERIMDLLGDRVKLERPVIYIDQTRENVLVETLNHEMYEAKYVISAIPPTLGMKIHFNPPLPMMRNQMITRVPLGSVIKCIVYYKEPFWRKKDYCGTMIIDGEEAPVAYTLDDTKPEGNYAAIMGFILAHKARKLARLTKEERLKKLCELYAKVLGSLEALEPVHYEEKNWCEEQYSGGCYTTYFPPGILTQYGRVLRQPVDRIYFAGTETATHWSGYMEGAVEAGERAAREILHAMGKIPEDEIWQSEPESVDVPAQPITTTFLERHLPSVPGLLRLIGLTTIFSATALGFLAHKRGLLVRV
Assay: Monoamine oxidase assay (Amplex Red), MAO-B
Format: biochemical
Settings: at 10,000 nM (10 μM); read-out: % inhibition at indicated concentration, Human MAO-B
metric name: inhibition at 10 µM (%)

C#CCn1c(=O)c2c(nc3n2CCN(Cc2cc(C(F)(F)F)ccc2Cl)C3)n(C)c1=O [Compound 19b] : 59
C#CCn1c(=O)c2c(nc3n2CCN(CCc2ccccc2OC)C3)n(CC)c1=O [Compound 20i] : 26
CCn1c(=O)c2c(nc3n2CCN(Cc2cc(Cl)cc(Cl)c2)C3)n(CC)c1=O [Compound 15m] : 66
CCn1c(=O)c2c(nc3n2CCN(Cc2cccc(F)c2)C3)n(C)c1=O [Compound 14g] : 48
CCn1c(=O)c2c(nc3n2CCN(Cc2cccc(C(F)(F)F)c2)C3)n(CC)c1=O [Compound 15g] : 10
C#CCn1c(=O)c2c(nc3n2CCN(CCc2cccc(OC)c2)C3)n(CC)c1=O [Compound 20j] : 30
C#CCn1c(=O)c2c(nc3n2CCN(Cc2ccccc2)C3)n(CC)c1=O [Compound 20e] : 20
C#CCn1c(=O)c2c(nc3n2CCN(c2ccc(F)cc2)C3)n(CC)c1=O [Compound 20b] : 35
Cn1c(=O)[nH]c(=O)c2c1nc1n2CCN(CCc2cccc(C(F)(F)F)c2)C1 [Compound 13e] : 47
CCn1c(=O)c2c(nc3n2CCN(Cc2cc(C(F)(F)F)cc(C(F)(F)F)c2)C3)n(C)c1=O [Compound 14q] : 56
CCn1c(=O)c2c(nc3n2CCN(Cc2ccc(C(F)(F)F)cc2)C3)n(C)c1=O [Compound 14f] : 32
CCn1c(=O)c2c(nc3n2CCN(Cc2cc(C(F)(F)F)cc(C(F)(F)F)c2)C3)n(CC)c1=O [Compound 15q] : 27
CCn1c(=O)c2c(nc3n2CCN(Cc2ccccc2C(F)(F)F)C3)n(C)c1=O [Compound 14d] : 49
CCn1c(=O)c2c(nc3n2CCN(Cc2c(Cl)cccc2Cl)C3)n(C)c1=O [Compound 14k] : 43
CCn1c(=O)c2c(nc3n2CCN(Cc2ccc(F)cc2)C3)n(C)c1=O [Compound 14h] : 24
C#CCn1c(=O)c2c(nc3n2CCN(CCc2ccccc2)C3)n(CC)c1=O [Compound 20h] : 27
CCn1c(=O)c2c(nc3n2CCN(Cc2cccc(Br)c2)C3)n(CC)c1=O [Compound 15d] : 49
C#CCn1c(=O)c2c(nc3n2CCN(CCc2ccc(OC)cc2)C3)n(CC)c1=O [Compound 20k] : 25
C#CCn1c(=O)c2c(nc3n2CCN(c2ccccc2F)C3)n(CC)c1=O [Compound 20a] : 29
CCn1c(=O)c2c(nc3n2CCN(Cc2cccc(Cl)c2)C3)n(CC)c1=O [Compound 15c] : 47
C#CCn1c(=O)c2c(nc3n2CCN(Cc2cccc(OC)c2)C3)n(CC)c1=O [Compound 20g] : 41
CCn1c(=O)c2c(nc3n2CCN(Cc2cccc(F)c2)C3)n(CC)c1=O [Compound 15b] : 49
C#CCn1c(=O)c2c(nc3n2CCN(CCc2ccc(OC)c(OC)c2)C3)n(CC)c1=O [Compound 20l] : 3
CCn1c(=O)c2c(nc3n2CCN(Cc2ccccc2Br)C3)n(C)c1=O [Compound 14a] : 37
Cn1c(=O)[nH]c(=O)c2c1nc1n2CCN(Cc2cccc(C(F)(F)F)c2)C1 [Compound 13b] : 14
CCn1c(=O)c2c(nc3n2CCN(Cc2ccc(Cl)c(C(F)(F)F)c2)C3)n(CC)c1=O [Compound 15p] : 67
C#CCn1c(=O)c2c(nc3n2CCN(c2ccc(OC)c(OC)c2)C3)n(CC)c1=O [Compound 20d] : 13
CCn1c(=O)c2c(nc3n2CCN(Cc2cccc(C(F)(F)F)c2F)C3)n(C)c1=O [Compound 14l] : 65
CCn1c(=O)c2c(nc3n2CCN(Cc2cccc(C(F)(F)F)c2F)C3)n(CC)c1=O [Compound 15h] : 32
CCn1c(=O)c2c(nc3n2CCN(Cc2ccc(F)c(Br)c2)C3)n(CC)c1=O [Compound 15k] : 63
CCn1c(=O)c2c(nc3n2CCN(Cc2cc(F)cc(C(F)(F)F)c2)C3)n(C)c1=O [Compound 14p] : 23
CCn1c(=O)c2c(nc3n2CCN(Cc2cccc(Br)c2)C3)n(C)c1=O [Compound 14b] : 34

meta.source: paper PMC6028563
